Let's look at some compounds and their measured minimal effective dose.
test system: Lymphatic leukemia L1210; experiment: Lymphatic leukemia L1210 survival test (survival time increase, long term survival, cure potential); assay type: in vivo, Female BDF1 mice; conditions: Mus musculus, L1210, po, 1440 h; >20% long term survivors on day 60; p.o. once; read-out: Minimum effective dose (long term survival)
# answer = value followed by unit

>  <Compound>
CCCN(CC)S(=O)(=O)CCNC(=O)N(CCCl)N=O

>  <Tgt>
Lymphatic leukemia L1210

>  <minimal effective dose>
125 mg/kg

$$$$
>  <Compound>
CON(C)S(=O)(=O)CCNC(=O)N(CCCl)N=O

>  <Tgt>
Lymphatic leukemia L1210

>  <minimal effective dose>
63 mg/kg

$$$$
>  <Compound>
CN(C)S(=O)(=O)CCNS(=O)(=O)CCNC(=O)N(CCCl)N=O

>  <Tgt>
Lymphatic leukemia L1210

>  <minimal effective dose>
63 mg/kg

$$$$
>  <Compound>
O=NN(CCCl)C(=O)NCCCl [BCNU, 1,2-bis-(2-chloroethyl)-nitrosourea, reference compound]

>  <Tgt>
Lymphatic leukemia L1210

>  <minimal effective dose>
63 mg/kg

$$$$
>  <Compound>
CCN(C)S(=O)(=O)CCNC(=O)N(CCCl)N=O

>  <Tgt>
Lymphatic leukemia L1210

>  <minimal effective dose>
31 mg/kg

$$$$
>  <Compound>
CN(C)S(=O)(=O)CCCCNC(=O)N(CCCl)N=O

>  <Tgt>
Lymphatic leukemia L1210

>  <minimal effective dose>
63 mg/kg

$$$$

Problem: Look up minimal effective dose for this compound: CN(Cc1ccccc1)S(=O)(=O)CCNC(=O)N(CCCl)N=O
Solution: 125 mg/kg

Problem: Now the compound CN(C)S(=O)(=O)CCCCCNC(=O)N(CCCl)N=O
Solution: 63 mg/kg

Problem: Now the compound O=NN(CCCl)C(=O)NCCS(=O)(=O)NCc1ccccc1
Solution: 125 mg/kg

Problem: Now the compound CN(CCO)S(=O)(=O)CCNC(=O)N(CCCl)N=O
Solution: 31 mg/kg

Problem: Now the compound NS(=O)(=O)CCNC(=O)N(CCCl)N=O
Solution: 16 mg/kg

Problem: Now the compound CCCCNS(=O)(=O)CCNC(=O)N(CCCl)N=O
Solution: 63 mg/kg

Problem: Now the compound COCCNS(=O)(=O)CCNC(=O)N(CCCl)N=O
Solution: 31 mg/kg

Problem: Now the compound CN(C1CCCCC1)S(=O)(=O)CCNC(=O)N(CCCl)N=O
Solution: 125 mg/kg

###

test: in vivo; settings: rat, po
// classify: if (LD50 < 90 mg/kg) rule met else rule not met

>  <Compound>
O=NN(CCCl)C(=O)NCCCl [BCNU, 1,2-bis-(2-chloroethyl)-nitrosourea, reference compound]

>  <Group>
rule met

$$$$
>  <Compound>
O=P1(N(CCCl)CCCl)NCCCO1 (stereo not shown) [Cyclophosphamide, reference compound]

>  <Group>
rule not met

$$$$
>  <Compound>
CCCN(CCC)S(=O)(=O)CCNC(=O)N(CCCl)N=O

>  <Group>
rule not met

$$$$
>  <Compound>
CN(C1CCCCC1)S(=O)(=O)CCNC(=O)N(CCCl)N=O

>  <Group>
rule not met

$$$$
>  <Compound>
CN(C)S(=O)(=O)CCNC(=O)N(CCCl)N=O

>  <Group>
rule met

$$$$
>  <Compound>
O=NN(CCCl)C(=O)NCCS(=O)(=O)N1CCCCC1

>  <Group>
rule not met

$$$$

Shift focus to the following entry.
Problem: Criterion: LD50 strictly below 90 mg/kg. Is it met by CNS(=O)(=O)CCNC(=O)N(CCCl)N=O ?
Solution: rule met

These entries and their values trace back to patent US4613695A.
